Assay: JC-1 mitochondrial signal, unstimulated MM1S myeloma – cell-based, JC-1 fluorescence, 24 h, 100 nL compound, profiling panel (AID 1170); note: test concentration not given here
Conditions: MM1S mitochondrial potential, higher = more signal
Give z-score for every item shown.
Number only, please.

input: z-score lookup needed for OCCCC1=CC(C2CC2)N(Cc2cccc(OC(F)(F)F)c2)CC1 (stereo not drawn) , thanks.
output: 0.572

input: # get_value(readout='z-score', item= CCCNC(=O)[C@@H]1c2ccccc2C(=O)N(Cc2ccccc2OC)[C@H]1c1ccc(CO)cc1 )
output: -0.565

input: Reported z-score, compound CCOC(=O)C[C@H]1[C@H](OC(=O)c2ccc(-c3ccccc3)cc2)[C@@H](NC(=O)c2ccccc2)c2cc(OCCCO)ccc2N1C(=O)Cc1ccc(OC)cc1 : ____
output: 0.617

input: Suppose we examine the compound C=C(CCCC)C(=O)CC[C@H](OC(=O)c1cccnc1)c1ccc(OCCO)cc1 ; what z-score value has been reported?
output: -1.44

input: Fill in: z-score of COc1ccccc1CN1C(=O)c2ccccc2[C@@]2(Cc3ccccc3N(CCCN(C)C)C2=O)[C@@H]1c1ccc(CO)cc1 is ___
output: -0.343

input: Given COC(=O)c1c(CC[C@@H](CO)NC(=O)N[C@@H](Cc2ccccc2)Cn2cc(-c3ccccn3)nn2)oc(C(=O)N2CCOCC2)c1C(=O)OC , state its recorded z-score.
output: -0.0834

input: Value lookup for z-score; key = CN1C(=O)C2C=CC(C(O)c3c(F)cccc3Cl)N(NC(=O)OC(C)(C)C)C2C1=O (stereo not drawn)
output: 0.925

input: Given the entry O=C(O)[C@@]1(CCS(=O)(=O)c2ccccc2)N=C(c2ccc(OCCCO)cc2)O[C@H]1c1ccccc1 , report its measured z-score.
output: -0.51
